Task for the reader: assign each of the following compounds its reported inhibition at 0.2 µM.
biological target: Voltage-dependent L-type calcium channel subunit alpha-1C (Oryctolagus cuniculus); test: Antagonist activity at rabbit Cav1.2 expressed in tsA201 cells assessed as inhibition of voltage pulse-induced calcium current at 200 nM by whole-cell patch-clamp recording
One number for each entry, in %.

Which inhibition at 0.2 µM reading was recorded for the compound CCOC(=O)C1=C(C)N=C(C)/C(=C(/O)OCC)C1c1ccco1 (centres undefined) ?
72

Which inhibition at 0.2 µM reading was recorded for the compound CCOC(=O)C1=C(C)NC(C)=C(C(=O)OCC)C1c1cc(C(F)(F)F)cc(C(F)(F)F)c1 ?
38

// input: 3 compounds below; output: inhibition at 0.2 µM for each
1. CCOC(=O)C1=C(C)NC(CC)=C(C(=O)OCC)C1c1cccc([N+](=O)[O-])c1 (centres undefined)
2. CCOC(=O)C1=C(C)NC(C)=C(C(=O)OCC)C1c1ccc([N+](=O)[O-])o1
3. CCOC(=O)C1=C(C)N=C(C)/C(=C(/O)OCC)C1c1cccc(OC)c1 (centres undefined)

1. 93
2. 43
3. 69

----------
target: Voltage-dependent L-type calcium channel subunit alpha-1C (Oryctolagus cuniculus, UniProt P15381); test: Antagonist activity at rabbit Cav1.2 expressed in tsA201 cells assessed as inhibition of voltage pulse-induced calcium current at 1000 nM by whole-cell patch-clamp recording
Sequence (P15381 whole entry): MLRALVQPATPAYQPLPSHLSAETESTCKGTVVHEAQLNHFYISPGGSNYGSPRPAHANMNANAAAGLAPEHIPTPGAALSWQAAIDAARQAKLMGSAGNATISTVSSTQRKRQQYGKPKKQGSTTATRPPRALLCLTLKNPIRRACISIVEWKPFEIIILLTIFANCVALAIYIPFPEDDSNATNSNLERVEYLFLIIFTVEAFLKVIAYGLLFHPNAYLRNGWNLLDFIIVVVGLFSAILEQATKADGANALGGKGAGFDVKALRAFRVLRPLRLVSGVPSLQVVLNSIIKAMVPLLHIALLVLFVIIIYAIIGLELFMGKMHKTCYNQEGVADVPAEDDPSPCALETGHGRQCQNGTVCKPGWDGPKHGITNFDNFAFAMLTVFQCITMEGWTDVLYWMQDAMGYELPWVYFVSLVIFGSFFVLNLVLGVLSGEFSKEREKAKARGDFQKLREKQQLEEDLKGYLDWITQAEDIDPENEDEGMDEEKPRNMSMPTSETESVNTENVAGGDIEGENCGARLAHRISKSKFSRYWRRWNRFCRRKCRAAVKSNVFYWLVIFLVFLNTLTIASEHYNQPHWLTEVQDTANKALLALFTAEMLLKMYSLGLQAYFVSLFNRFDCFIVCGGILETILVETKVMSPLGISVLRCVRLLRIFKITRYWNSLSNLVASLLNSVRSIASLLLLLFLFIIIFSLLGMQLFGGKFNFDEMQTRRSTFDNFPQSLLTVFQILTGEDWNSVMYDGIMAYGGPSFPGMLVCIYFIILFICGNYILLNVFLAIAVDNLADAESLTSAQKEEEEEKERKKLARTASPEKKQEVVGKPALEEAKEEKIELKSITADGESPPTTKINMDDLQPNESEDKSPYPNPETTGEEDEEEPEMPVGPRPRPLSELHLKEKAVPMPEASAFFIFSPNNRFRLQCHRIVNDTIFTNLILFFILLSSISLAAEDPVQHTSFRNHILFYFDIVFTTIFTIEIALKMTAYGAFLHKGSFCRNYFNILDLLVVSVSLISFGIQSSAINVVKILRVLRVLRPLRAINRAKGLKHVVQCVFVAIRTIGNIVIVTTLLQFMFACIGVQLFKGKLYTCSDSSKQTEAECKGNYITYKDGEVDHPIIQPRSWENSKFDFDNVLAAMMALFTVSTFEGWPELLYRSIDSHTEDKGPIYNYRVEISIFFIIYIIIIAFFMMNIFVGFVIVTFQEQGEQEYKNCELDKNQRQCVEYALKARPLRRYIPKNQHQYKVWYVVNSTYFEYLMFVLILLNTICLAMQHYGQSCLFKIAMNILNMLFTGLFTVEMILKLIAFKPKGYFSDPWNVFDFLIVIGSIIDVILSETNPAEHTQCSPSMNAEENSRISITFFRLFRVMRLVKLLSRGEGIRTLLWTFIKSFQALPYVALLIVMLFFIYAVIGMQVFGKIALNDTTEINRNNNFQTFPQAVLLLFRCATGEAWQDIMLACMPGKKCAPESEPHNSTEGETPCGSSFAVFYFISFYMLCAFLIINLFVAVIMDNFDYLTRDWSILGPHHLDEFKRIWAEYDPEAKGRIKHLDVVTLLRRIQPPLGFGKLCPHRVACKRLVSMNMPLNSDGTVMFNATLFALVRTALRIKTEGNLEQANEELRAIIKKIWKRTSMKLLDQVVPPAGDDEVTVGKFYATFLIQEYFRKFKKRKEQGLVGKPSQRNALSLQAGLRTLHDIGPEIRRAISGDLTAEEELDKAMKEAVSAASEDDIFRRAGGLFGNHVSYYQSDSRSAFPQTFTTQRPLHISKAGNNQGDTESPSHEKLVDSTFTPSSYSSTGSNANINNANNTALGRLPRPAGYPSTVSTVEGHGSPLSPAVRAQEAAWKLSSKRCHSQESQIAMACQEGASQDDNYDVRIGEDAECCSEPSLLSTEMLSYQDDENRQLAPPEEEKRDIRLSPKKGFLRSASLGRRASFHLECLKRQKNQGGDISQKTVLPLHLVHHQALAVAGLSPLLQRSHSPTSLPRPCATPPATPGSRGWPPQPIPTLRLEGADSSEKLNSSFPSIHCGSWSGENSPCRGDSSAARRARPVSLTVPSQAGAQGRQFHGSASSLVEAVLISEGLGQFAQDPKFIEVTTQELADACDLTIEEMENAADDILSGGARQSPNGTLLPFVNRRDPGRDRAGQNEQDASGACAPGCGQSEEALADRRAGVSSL
measured_property: inhibition at 1 µM
Quick note: unit goes after the number.

Some entries whose results are on file:
Which inhibition at 1 µM reading was recorded for the molecule CCOC(=O)C1=C(C)NC(C)=C(C(=O)OCC)C1c1ccc([N+](=O)[O-])cc1 ?
48%

Which inhibition at 1 µM reading was recorded for the molecule CCOC(=O)C1=C(C)NC(C)=C(C(=O)OCC)C1c1ccc(OCc2ccc(Br)cc2)cc1 ?
38%

Which inhibition at 1 µM reading was recorded for the molecule CCOC(=O)C1=C(C)NC(C)=C(C(=O)OCC)C1C(C)c1ccccc1 (stereo not given) ?
28%

Which inhibition at 1 µM reading was recorded for the molecule CCOC(=O)C1=C(C)NC(C)=C(C(=O)OCC)C1c1cc2cccc(C)c2nc1Cl ?
12%

Would you kindly look at the next entry?
Which inhibition at 1 µM reading was recorded for the molecule CCOC(=O)C1=C(C)N=C(C)/C(=C(/O)OCC)C1/C=C/c1ccccc1 (stereo not given) ?
30%

----------
Task for the reader: assign each of the following molecules its reported inhibition.
target: Voltage-dependent L-type calcium channel subunit alpha-1D (Rattus norvegicus) (UniProt P27732); test: Antagonist activity at rat Cav1.3 expressed in HEK293 cells assessed as inhibition of voltage pulse-induced calcium current at 200 nM by whole-cell patch-clamp recording
Sequence (P27732 whole entry): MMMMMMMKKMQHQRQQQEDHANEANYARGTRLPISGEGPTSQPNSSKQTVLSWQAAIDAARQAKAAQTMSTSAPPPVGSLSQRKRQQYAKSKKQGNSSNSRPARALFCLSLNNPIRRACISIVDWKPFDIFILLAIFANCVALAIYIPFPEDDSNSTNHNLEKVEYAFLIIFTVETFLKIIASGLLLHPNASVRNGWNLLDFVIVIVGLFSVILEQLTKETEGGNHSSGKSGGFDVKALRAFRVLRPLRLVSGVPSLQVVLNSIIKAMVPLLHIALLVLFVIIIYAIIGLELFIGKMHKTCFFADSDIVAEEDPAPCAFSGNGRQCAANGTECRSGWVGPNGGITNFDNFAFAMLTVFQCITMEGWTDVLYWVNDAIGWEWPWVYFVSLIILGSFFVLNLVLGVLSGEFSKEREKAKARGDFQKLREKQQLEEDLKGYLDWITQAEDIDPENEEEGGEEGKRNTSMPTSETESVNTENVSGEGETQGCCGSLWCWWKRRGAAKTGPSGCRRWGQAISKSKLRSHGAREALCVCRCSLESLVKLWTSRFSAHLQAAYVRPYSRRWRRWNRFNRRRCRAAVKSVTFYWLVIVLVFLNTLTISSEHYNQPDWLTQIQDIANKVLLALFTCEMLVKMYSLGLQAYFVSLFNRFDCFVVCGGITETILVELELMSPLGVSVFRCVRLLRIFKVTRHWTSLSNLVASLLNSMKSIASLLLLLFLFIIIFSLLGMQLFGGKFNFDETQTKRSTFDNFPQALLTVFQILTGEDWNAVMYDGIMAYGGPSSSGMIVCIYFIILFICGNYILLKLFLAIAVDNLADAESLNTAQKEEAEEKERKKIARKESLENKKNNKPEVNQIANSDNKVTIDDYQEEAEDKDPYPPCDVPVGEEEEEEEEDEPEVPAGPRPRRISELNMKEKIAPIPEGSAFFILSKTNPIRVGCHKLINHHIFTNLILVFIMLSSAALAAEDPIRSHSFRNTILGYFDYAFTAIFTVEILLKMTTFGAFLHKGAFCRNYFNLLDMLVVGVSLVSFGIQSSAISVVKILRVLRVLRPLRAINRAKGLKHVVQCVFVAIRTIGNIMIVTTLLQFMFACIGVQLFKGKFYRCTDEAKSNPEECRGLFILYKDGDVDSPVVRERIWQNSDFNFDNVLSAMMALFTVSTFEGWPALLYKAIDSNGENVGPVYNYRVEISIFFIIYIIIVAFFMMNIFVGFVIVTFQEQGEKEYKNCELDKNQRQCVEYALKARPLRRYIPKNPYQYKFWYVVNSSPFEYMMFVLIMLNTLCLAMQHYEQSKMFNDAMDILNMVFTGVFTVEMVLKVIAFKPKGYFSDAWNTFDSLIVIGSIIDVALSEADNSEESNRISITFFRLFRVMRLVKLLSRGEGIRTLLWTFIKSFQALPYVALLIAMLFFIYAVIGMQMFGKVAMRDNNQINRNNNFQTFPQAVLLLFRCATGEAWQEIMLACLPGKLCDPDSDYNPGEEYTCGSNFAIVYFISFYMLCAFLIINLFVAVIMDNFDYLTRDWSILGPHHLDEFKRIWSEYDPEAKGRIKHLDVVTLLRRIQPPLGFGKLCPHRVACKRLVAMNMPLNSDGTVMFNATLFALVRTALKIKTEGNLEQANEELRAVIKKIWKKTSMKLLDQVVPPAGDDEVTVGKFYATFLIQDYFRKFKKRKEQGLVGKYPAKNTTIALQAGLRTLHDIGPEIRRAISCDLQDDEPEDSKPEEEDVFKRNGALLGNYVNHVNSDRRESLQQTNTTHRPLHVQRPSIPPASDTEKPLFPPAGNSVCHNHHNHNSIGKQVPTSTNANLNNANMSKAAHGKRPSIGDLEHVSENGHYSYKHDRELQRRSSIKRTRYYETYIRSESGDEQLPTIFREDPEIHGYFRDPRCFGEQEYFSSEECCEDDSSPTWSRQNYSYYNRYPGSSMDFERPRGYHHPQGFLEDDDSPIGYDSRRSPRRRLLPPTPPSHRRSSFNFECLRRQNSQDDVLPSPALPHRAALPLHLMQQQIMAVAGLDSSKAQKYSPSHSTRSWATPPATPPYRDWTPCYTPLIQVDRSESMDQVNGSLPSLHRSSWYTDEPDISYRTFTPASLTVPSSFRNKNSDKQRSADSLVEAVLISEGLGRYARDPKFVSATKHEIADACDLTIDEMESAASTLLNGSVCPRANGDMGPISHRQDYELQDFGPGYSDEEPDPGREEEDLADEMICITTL

Some entries whose results are on file:
Which inhibition reading was recorded for the molecule CCOC(=O)C1=C(C)NC(C)=C(C(=O)OCC)C1c1cccc(C(F)(F)F)c1 ?
84%

Which inhibition reading was recorded for the molecule CCOC(=O)C1=C(C)N=C(C)/C(=C(/O)OCC)C1c1cccnc1 (stereo not given) ?
14%

// input: 3 molecules below; output: inhibition for each
1. CCOC(=O)C1=C(C)N=C(C)/C(=C(/O)OCC)C1c1ccco1 (stereo not given)
2. CCOC(=O)C1=C(C)NC(C)=C(C(=O)OCC)C1c1ccc([N+](=O)[O-])o1
3. CCOC(=O)C1=C(C)N=C(C)/C(=C(/O)OCC)C1c1cccc(OC)c1 (stereo not given)

1: 48%; 2: 41%; 3: 44%

Ref: ChEMBL document CHEMBL1158565
